Data credit: ChEMBL document CHEMBL5050861

Species: Homo sapiens
Assay: Inhibition of human GALK1 K252A/E253A double mutant relative to control
Set-up: concentration or dose not given beside the values
Conditions: concentration not given here
Field: inhibition. Provide a value for each of the compounds that follow.

Sample answers from the record:
# COMPOUND, OUTCOME MEASURE, MEASURED VALUE
data = [
    ("CC1=C(C(=O)Nc2cc(C(=O)O)ccn2)C(c2ccccc2Cl)N=C(Nc2nc3cccc(Cl)c3o2)N1 (stereo not drawn)", "inhibition", "100%"),
    ("CC1=C(C(=O)Nc2ccc(C(=O)O)cc2)C(c2ccccc2Cl)N=C(Nc2nc3ccccc3o2)N1 (stereo not drawn)", "inhibition", "100%"),
    ("CC1=C(C(=O)Nc2cccc(C(=O)O)c2)C(c2ccccc2Cl)N=C(Nc2nc3ccccc3o2)N1 (stereo not drawn)", "inhibition", "96%"),
    ("CC1=C(C(=O)Nc2cc(C(=O)O)ccn2)C(c2ccccc2Cl)N=C(Nc2nc3cccc(N)c3o2)N1 (racemic)", "inhibition", "100%"),
    ("CC1=C(C(=O)Nc2cc(C(=O)O)ccn2)C(c2cccc(C(N)=O)c2)N=C(Nc2nc3ccc(F)cc3o2)N1 (stereo not drawn)", "inhibition", "90%"),
    ("COc1ccc(C2N=C(Nc3nc4ccc(F)cc4o3)NC(C)=C2C(=O)Nc2cc(C(=O)O)ccn2)c(Cl)c1 (stereo not drawn)", "inhibition", "100%"),
    ("CC1=C(C(=O)Nc2cc(C(=O)O)ccn2)C(c2ccccc2Cl)N=C(Nc2nc3c(Cl)cccc3o2)N1 (stereo not drawn)", "inhibition", "85%"),
]

Sure, the documented inhibition for CC1=C(C(=O)NCc2nccn2C)C(c2ccccc2Cl)N=C(Nc2nc3ccccc3o2)N1 (stereo not drawn) is 94%
